# measured target: UniProt P00766
# assay details: Inhibitory activity against chymotrypsin using Suc-Ala-Ala-Pro-Phe-pNA (416 uM) as substrate
# Parameters: species or system Sus scrofa
measure name: IC50 (µM)
// note: answer is a bare numeric in µM

Query block: Consider the compound shown here: "COc1ccc2c(c1)c1c(=O)oc(=O)[nH]c1n2Cc1ccccn1" What is its recorded IC50?
Result block: 512

----------
# measured target: Neutrophil elastase (Homo sapiens)
# Sequence (P08246 whole entry): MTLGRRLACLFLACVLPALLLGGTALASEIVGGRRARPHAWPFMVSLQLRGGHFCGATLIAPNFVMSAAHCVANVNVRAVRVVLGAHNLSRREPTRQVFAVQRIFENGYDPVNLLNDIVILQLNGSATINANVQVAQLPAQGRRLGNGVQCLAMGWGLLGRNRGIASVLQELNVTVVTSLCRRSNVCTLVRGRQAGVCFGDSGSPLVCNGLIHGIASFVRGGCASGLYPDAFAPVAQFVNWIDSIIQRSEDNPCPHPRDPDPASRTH
# assay details: Inhibitory activity against human leukocyte elastase using MeO-Suc-Ala-Ala-Pro-Val-pNA (416 uM) as substrate
measure name: pIC50
Units for pIC50: none; it is -log10 of a concentration expressed in mol/L.

Query block: Value wanted: pIC50 (Neutrophil elastase (Homo sapiens)) of entry "COc1ccc2c(c1)c1c(=O)oc(=O)[nH]c1n2CCCc1ccccc1"
Result block: 3.00

----------
# measured target: Neutrophil elastase (Homo sapiens, UniProt P08246)
# assay details: In vitro inhibition of human leukocyte elastase.
pIC50: −log10 of the molar value.
measure name: pIC50

| given smiles | readout value |
| --- | --- |
| CCCCn1c2ccc(OC(C)=O)cc2c2c(=O)oc(=O)[nH]c21 | 3.09 |

I = CC(=O)Oc1ccc2c(c1)c1c(=O)oc(=O)[nH]c1n2C1CCCCC1
II = COC(Cn1c2ccc(OC(C)=O)cc2c2c(=O)oc(=O)[nH]c21)OC
III = CC(=O)Oc1ccc2c(c1)c1c(=O)oc(=O)[nH]c1n2Cc1ccccc1
Query block: Order these by pIC50, descending, and give the full ranking. Reply with the labels, ordered as the question asks.
Result block: III, I, II

A = CC(=O)Oc1ccc2c(c1)c1c(=O)oc(=O)[nH]c1n2Cc1ccccn1
B = CCCn1c2ccc(OC(C)=O)cc2c2c(=O)oc(=O)[nH]c21
C = CC(=O)Oc1ccc2c(c1)c1c(=O)oc(=O)[nH]c1n2CCc1ccccc1
Query block: Please give the order of these compounds when sorted by pIC50, largest value leading. Present the labels in the sequence the task asks for.
Result block: C, A, B
(C: 4.04, A: 3.53, B: 3.18)

----------
# measured target: Neutrophil elastase (Homo sapiens, UniProt P08246)
# assay details: Inhibitory activity against human leukocyte elastase using MeO-Suc-Ala-Ala-Pro-Val-pNA (416 uM) as substrate;No Inhibition
# condition parameters: read-out: IC50
measure name: pIC50
Just so you know, pIC50 here is -log10 of the concentration in molar units; reply with that number alone.

Query block: I have this molecule here, "Cc1c(C)n(CCCc2ccccc2)c2[nH]c(=O)oc(=O)c12" , and I need its recorded pIC50.
Result block: 3.05

Hello, the source for this data is ChEMBL document CHEMBL1127279, in case you need it.
